biological target: hTNNI3K (Homo sapiens, UniProt Q59H18)
Sequence (Q59H18 whole entry): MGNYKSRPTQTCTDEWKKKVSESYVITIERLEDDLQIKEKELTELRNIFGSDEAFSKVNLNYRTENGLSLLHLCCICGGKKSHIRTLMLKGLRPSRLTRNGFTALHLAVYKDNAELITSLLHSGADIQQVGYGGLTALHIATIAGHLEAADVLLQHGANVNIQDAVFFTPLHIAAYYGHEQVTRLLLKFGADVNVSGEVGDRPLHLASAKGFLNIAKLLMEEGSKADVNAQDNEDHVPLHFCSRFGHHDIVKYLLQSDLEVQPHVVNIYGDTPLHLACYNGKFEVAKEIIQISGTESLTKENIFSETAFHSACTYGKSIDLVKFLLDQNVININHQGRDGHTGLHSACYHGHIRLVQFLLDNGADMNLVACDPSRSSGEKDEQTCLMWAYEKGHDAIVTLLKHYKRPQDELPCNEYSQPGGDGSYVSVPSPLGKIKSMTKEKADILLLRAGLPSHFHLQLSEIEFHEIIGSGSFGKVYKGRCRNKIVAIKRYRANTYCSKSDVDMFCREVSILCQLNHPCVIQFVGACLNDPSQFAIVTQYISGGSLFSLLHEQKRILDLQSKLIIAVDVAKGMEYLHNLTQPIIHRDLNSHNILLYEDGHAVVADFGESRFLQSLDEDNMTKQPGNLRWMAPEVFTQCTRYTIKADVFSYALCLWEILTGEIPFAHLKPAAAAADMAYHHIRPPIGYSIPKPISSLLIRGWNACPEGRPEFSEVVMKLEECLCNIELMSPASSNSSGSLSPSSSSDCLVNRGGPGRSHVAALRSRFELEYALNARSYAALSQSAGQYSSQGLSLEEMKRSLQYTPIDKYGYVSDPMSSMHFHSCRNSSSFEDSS
pIC50: −log10 of the molar value.
experimental endpoint: pIC50

Exercise: Notebook entry, hTNNI3K (Homo sapiens, UniProt Q59H18) assay: pIC50 of Cc1cn(CCN2CCN(c3ccccc3-c3cc(C#N)cc(C(=O)NCCCN4CCCC4)c3)CC2)c2ccccc12 = ?
Solution: < 4.70

---

biological target: hLIMK2 (Homo sapiens)
Sequence (P53671 whole entry): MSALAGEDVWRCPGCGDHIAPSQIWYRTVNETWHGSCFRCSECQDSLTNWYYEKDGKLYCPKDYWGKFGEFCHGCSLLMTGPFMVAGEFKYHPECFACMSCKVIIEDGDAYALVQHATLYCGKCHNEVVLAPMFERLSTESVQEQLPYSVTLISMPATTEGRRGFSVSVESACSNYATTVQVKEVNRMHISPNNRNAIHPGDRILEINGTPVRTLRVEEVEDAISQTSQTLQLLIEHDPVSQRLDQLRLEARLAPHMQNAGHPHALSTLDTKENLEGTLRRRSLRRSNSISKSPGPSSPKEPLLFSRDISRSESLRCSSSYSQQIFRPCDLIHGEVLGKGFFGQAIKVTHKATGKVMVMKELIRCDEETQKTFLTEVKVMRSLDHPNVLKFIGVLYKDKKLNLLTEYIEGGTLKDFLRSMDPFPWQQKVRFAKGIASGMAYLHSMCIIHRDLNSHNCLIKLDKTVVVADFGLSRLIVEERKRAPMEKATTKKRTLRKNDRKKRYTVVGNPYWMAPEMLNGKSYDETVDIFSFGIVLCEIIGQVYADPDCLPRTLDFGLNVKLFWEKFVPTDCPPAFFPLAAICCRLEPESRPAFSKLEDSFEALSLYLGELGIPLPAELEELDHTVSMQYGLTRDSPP
pIC50: −log10 of the molar value.
experimental endpoint: pIC50

Exercise: Notebook entry, hLIMK2 (Homo sapiens) assay: pIC50 of Cc1cn(CCN2CCN(c3ccccc3-c3cc(C#N)cc(C(=O)NCCCN4CCCC4)c3)CC2)c2ccccc12 = ?
Solution: < 4.70
